# SYSTEM TESTED: human glucagon receptor (GCGR) (human, UniProt P47871 26-477)
# TEST DESCRIPTION: cell-based or functional assay
Where no end group is shown, it is not given here. [ ]: non-standard residue; d: D form. Formula III = not defined here; Formula II = not defined here; Aib = CC(C)(N)C(=O)O
MEASUREMENT TYPE: GluR pEC 50 (pEC50)
Respond numerically; units are pEC50 and should not be typed.

Here's what some known entries look like.
- BINDER: "YSHGTFTSDYSKYLD[Aib]KYAQEFVK(Formula II)WLEDEPSSGAPPPS-OH (reading uncertain) [Compound B2]"
  RESULT UNIT: "pEC50"
  GluR pEC 50: 11.1
- BINDER: "WSQGTFTSDK(Formula III)SKYLD[Aib]KRAQEFV[Aib]WLEDEPSSGAPPPS-OH (reading uncertain) [Compound B24]"
  RESULT UNIT: "pEC50"
  GluR pEC 50: 8.2
- BINDER: "YSHGTFTSDYSKYLDK(Formula III)KRAQEFVIWLEDEPSSGAPPPS (reading uncertain) [Compound B31]"
  RESULT UNIT: "pEC50"
  GluR pEC 50: 10.6
- BINDER: "YSHGTFTSDK(Formula II)SKYLD[Aib]KSAQEFV[Aib]WLEDEPSSGAPPPS-OH (reading uncertain) [Compound B12]"
  RESULT UNIT: "pEC50"
  GluR pEC 50: 11.5
- BINDER: "YSHGTFTSDYSKYLD[Aib]KYAQEFV[Aib]WLEDEPSSK(Formula III)APPPS-OH (reading uncertain) [Compound B5]"
  RESULT UNIT: "pEC50"
  GluR pEC 50: 9.6

YSHGTFTSDK(Formula II)SKYLD[Aib]KRAQEFVIWLEDEPSSGAPPPS-OH (reading uncertain) [Compound B27] has a reported GluR pEC 50 of 11.5

Value of GluR pEC 50 reported for the binder YSHGTFTSDYSKYLDK(Formula II)KSAQEFV[Aib]WLEDEPSSGAPPPS-OH (reading uncertain) [Compound B11] is 10.3

// GluR pEC 50 value for WSQGTFTSDYSKYLDK(Formula II)KRAQEFV[Aib]WLEDEPSSGAPPPS-OH (reading uncertain) [Compound B19] : 10.6

// field: GluR pEC 50; key: YSHGTFTSDYSKYLD[Aib]KYAQEFVK(Formula III)WLEDEPSSGAPPPS-OH (reading uncertain) [Compound B6] ; value = 10.1

In plain terms, YSHGTFTSDYSKYLDK(Formula III)KSAQEFV[Aib]WLEDEPSSGAPPPS-OH (reading uncertain) [Compound B15] has a documented GluR pEC 50 of 9.9

Recorded values, source patent US20180009871A1.
